Biological target: glucagon receptor (UniProt P47871 26-477, limits assumed)
Sequence (P47871 26-477 limits assumed): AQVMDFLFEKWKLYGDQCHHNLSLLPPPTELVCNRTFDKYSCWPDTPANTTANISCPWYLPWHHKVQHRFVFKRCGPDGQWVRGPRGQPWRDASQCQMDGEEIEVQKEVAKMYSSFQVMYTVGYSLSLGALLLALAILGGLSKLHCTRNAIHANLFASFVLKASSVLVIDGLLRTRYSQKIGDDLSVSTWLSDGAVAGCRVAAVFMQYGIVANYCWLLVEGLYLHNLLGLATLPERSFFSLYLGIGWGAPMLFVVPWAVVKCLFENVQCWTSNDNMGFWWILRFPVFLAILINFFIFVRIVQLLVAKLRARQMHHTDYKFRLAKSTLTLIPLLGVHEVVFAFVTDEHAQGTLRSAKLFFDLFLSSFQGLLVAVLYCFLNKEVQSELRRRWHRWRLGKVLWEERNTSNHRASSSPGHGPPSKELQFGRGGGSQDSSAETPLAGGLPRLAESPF
Assay: cell-based or functional assay
Where no end group is shown, it is not given here. [ ]: non-standard residue; d: D form. Aib = CC(C)(N)C(=O)O
Listing: EC50 of selected binders

[
  {
    "binder": "YAEGTFISDYSIAMDKIHQQDFVNWLLAQ-NH2 [mt-106]",
    "unit_annotation": "nM",
    "EC50": 165
  },
  {
    "binder": "HSQGTFTSDYSKYLDEIHQKEFIAWLLAQ-NH2 [mt-66]",
    "unit_annotation": "nM",
    "EC50": 2
  },
  {
    "binder": "YAEGTFISDYSIAMDKIHQQDFVNWLLAQKGKKNWLKHNITQ-NH2 [mt-99]",
    "unit_annotation": "nM",
    "EC50": 23300
  },
  {
    "binder": "Y[Aib]EGTFISDYSIAMDKIHQQDFVCWLLAQKGKKNWLKHNITQ-NH2 [mt-102]",
    "unit_annotation": "nM",
    "EC50": 799
  },
  {
    "binder": "YSQGTFTSDYSKYLDEIHQKEFVNWLLAQ-NH2 [mt-118]",
    "unit_annotation": "nM",
    "EC50": 0.04
  }
]
